# procedure-details: inhibitors of hepatocyte lipid droplet formation, primary screen, imaging, high-throughput imaging, BODIPY stain (AID 1656);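 note: cells counted across two imaged fields per well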
# condition-summary: AML12 mouse hepatocytes, oleate lipid droplets, at 6.5 µM; measured here: cell count, cytotoxicity flag
Screen size: about 240,000 compounds; about 950 (0.4%) were called active. The sample as a whole holds a higher share of actives than the screen did.
Entries and their measured cell count follow.
Your answer is read as cells, so omit the unit and give the number.

COc1ccc(/C=N/N=C2/C(=O)Nc3ccccc32)cc1O : 676
COc1cccc(OCC(O)CNC(=O)c2oc3c(C)c(C)ccc3c2C)c1 (stereo not given) : 871
CSCCC(NS(=O)(=O)c1ccccc1F)C(=O)N1CC=C(c2ccccc2)CC1 (stereo not given) : 678
Cc1cccc2c1cnn2C(=O)CCC(=O)NC1CCCCC1 : 740
N#C/C(=C\C1=C(N2CCOCC2)C(=C\c2ccccc2)/CC1)C(=O)Nc1ccccc1F : 430

Using the record for N#C/C(=C/c1ccc(N2CCOCC2)o1)C(=O)N1CCOCC1 , state its measured cell count.
636

Using the record for CC1CCN(CCCn2c(SCC(=O)NC3CCCC3)nc3ccccc3c2=O)CC1 , state its measured cell count.
704

Using the record for O=C(Nc1ccccc1C(=O)Nc1ccncc1)c1ccc([N+](=O)[O-])cc1 , state its measured cell count.
805

Using the record for COc1cccc(Cn2cc(/C=N/NC(=O)c3cc(O)cc(O)c3)c3ccccc32)c1 , state its measured cell count.
740

Using the record for CC(=O)Nc1cccc(Nc2nc(-c3cccs3)nc3ccccc23)c1 , state its measured cell count.
775

====

Entries and their measured cell count follow.
# procedure-details: inhibitors of hepatocyte lipid droplet formation, primary screen, imaging, high-throughput imaging, BODIPY stain (AID 1656);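 note: cells counted across two imaged fields per well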
# condition-summary: AML12 mouse hepatocytes, oleate lipid droplets, at 6.5 µM; measured here: cell count, cytotoxicity flag
The campaign covered roughly 240,000 compounds. About 950 (0.4%) were called active. Shown is part of a subset that was picked to be rich in actives.
Please make sure the unit comes right after the number.

Consider the following illustrative entries.
CCOc1cc(NC(=O)Nc2ccccc2)c(OCC)cc1NC(=O)CC : 783 cells
CCC(=O)N1CCN(c2ccccc2NC(=O)COc2cccc(C)c2C)CC1 : 823 cells
CCC(C)[C@H](NC(=O)N1CCn2c1nc1ccccc12)C(=O)NCc1ccc(OC)cc1 (stereo not given in full) : 712 cells
COc1ccc(C(CNC(=O)COc2ccccc2OC)N2CCCCC2)cc1 (stereo not given) : 697 cells

Using the record for CC(C)=CCCC(C)CN1CCC(n2nccc2NC(=O)c2ccccc2)CC1 (stereo not given) , state its measured cell count.
722 cells

Using the record for COc1ccccc1CCNS(=O)(=O)c1cc2c3c(c1)C(C)C(=O)N3CCC2 (stereo not given) , state its measured cell count.
707 cells

Using the record for C=CCSc1nnc(N2C(=O)C(O)=C(C(=O)c3ccco3)C2c2ccc(F)cc2)s1 (stereo not given) , state its measured cell count.
710 cells

Using the record for N#C/C(=C\c1ccccc1C(F)(F)F)C(=O)Nc1ccccc1F , state its measured cell count.
614 cells

Using the record for CN(CC1CCCN(CCc2cccc(C(F)(F)F)c2)C1)C(=O)c1ccc2nc[nH]c2c1 (stereo not given) , state its measured cell count.
744 cells

Using the record for CCOc1ccc(CCNC(=O)C2=C(C)C(=O)OC23CCC(C)CC3)cc1OCC (stereo not given) , state its measured cell count.
788 cells
